# study_target: B7-H3 on Calu-6 cells (human) (UniProt Q5ZPR3)
# Sequence (Q5ZPR3 29-534): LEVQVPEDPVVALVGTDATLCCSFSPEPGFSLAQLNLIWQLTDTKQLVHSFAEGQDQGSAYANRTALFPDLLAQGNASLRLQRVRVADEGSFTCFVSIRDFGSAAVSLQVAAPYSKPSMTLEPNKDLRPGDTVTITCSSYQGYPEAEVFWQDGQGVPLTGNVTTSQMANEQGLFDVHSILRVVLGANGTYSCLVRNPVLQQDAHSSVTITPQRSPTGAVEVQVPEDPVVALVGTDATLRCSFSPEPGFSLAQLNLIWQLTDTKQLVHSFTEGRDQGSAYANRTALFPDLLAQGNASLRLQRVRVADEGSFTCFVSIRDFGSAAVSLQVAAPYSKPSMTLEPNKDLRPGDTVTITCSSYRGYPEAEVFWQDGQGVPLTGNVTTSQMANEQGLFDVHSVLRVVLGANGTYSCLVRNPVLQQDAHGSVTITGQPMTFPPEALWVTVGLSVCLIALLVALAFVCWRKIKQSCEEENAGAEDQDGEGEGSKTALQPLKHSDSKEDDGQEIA
# protocol_summary: 177Lu-labelled peptide on Calu-6 cells, % cell associated fraction; B = 25<%<=50
Starred links: 1 amine or outer side, 2 acyl side, 3 side chain; linkers in the order of their positions; H or OH if unused. Positions of bridges follow the written chain, without caps; N, C: chain ends. Non-standard residues stand in square brackets, D forms with d. *: point of attachment. DOTA = O=C(O)CN1CCN(CC(=O)O)CCN(CC(=O)*)CCN(CC(=O)O)CC1; Trp(5-F) = N[C@@H](Cc1c[nH]c2ccc(F)cc12)C(=O)O; hCba = O=C([C@H](CCC1CCC1)N[*:1])[*:2]; Ala(4-THP) = N[C@@H](CC1CCOCC1)C(=O)O; Val(3-OH) = CC(C)(O)[C@H](N)C(=O)O; Tle = CC(C)(C)[C@H](N)C(=O)O; hLeu = CC(C)CC[C@H](N)C(=O)O

binder: Ac-[hCba]YC[Tle]GK[Ala(4-THP)]DVYC[Trp(5-F)]F[Val(3-OH)][dK](DOTA)-OH (disulfide 3-11 (inferred)) [Cpd 398]
% cell associated fraction: 25 to 50%
//
binder: Ac-[hLeu]YC[Tle]GK[Ala(4-THP)]DVYC[Trp(5-F)]F[Val(3-OH)][dK](DOTA)-NH2 (disulfide 3-11 (inferred)) [Cpd 366]
% cell associated fraction: 25 to 50%

The reported numbers originate from patent US20250296959A1.
